Answer each item with its documented emission maximum.
# assay.comment: solvent given as SMILES
# condition.details: in ClCCl
Use nm as the unit, but write only the number.

Qu. So what does the record say about emission maximum for CC(C)[Si](C#Cc1c2cc3ccccc3cc2c(C#Cc2ccccc2)c2cc3ccccc3cc12)(C(C)C)C(C)C ?
Ans. 661

Qu. Next entry: O=c1oc2ccccc2cc1-c1ccc(-c2ccc(-c3cc4ccccc4oc3=O)cc2)cc1
Ans. 430

Qu. Lookup CN(C)c1ccc(C2=C3C=C(c4ccc(C#N)cc4)S[C@]34c3ccccc3[C@H]2c2ccccc24)cc1
Ans. 601

Qu. Now try N#C/C=C/c1ccc2ccc3cccc4ccc1c2c34 .
Ans. 434

Qu. Same question, Cc1cc(C)n2c1C=[N+]1[N+](=C3C=NC=CN3[B-]1(F)F)[B-]2(F)F this time
Ans. 490

Qu. Now this one: CCn1c2ccccc2c2cc(-c3cc(-c4ccc5c(c4)c4ccccc4n5CC)nc(C#N)n3)ccc21
Ans. 435

Qu. Same again, this time with c1ccc2c(c1)c1ccccc1c1ccccc21
Ans. 355

Qu. Would you kindly repeat that for COc1ccc(C2=[N+]3C(=Nc4c(-c5ccc6ccccc6c5)c(Br)c(-c5ccc(OC)cc5)n4[B-]3(F)F)C(c3ccc4ccccc4c3)=C2Br)cc1 ?
Ans. 734

Qu. Do the same for Cc1cc(O)c(C(=O)/C=C/c2ccc(N(C)C)cc2)c(=O)o1 please
Ans. 573

###

# assay.comment: solvent given as SMILES
# condition.details: in CS(C)=O
Assign emission maximum to each entry below.
API: value field is a number in nm; no unit string.

Qu. Data request, read-out emission maximum, for CCCCN(CCCC)c1ccc(/C=C/c2ccc3c(c2)CCc2cc(/C=C/c4ccc(N(CCCC)CCCC)cc4)ccc2-3)cc1
Ans. 536.5

Qu. Follow-up entry: CN1/C(=C/C=C/C2=[N+](C)c3ccccc3C2(C)C)Sc2ccccc21
Ans. 569

Qu. Do the same for CCn1c2ccccc2c2cc(/C=C/C(=O)c3ccc4c(c3)c3cc(C(=O)/C=C/c5ccc6c(c5)c5ccccc5n6CC)ccc3n4CC)ccc21 please
Ans. 493

Qu. Also COc1ccc(/C=C/c2cc(/C=C/c3ccc(OC)cc3)nc(/C=C/c3ccc(C(F)(F)F)cc3)n2)cc1 ?
Ans. 475

Qu. Moving on to O=C(O)COc1ccc2[nH]c3c(c2c1)CCCC3=O
Ans. 426.92

Qu. Now the molecule c1cc2c3c(cccc3c1)NC(c1ccc3ccc4cccc5ccc1c3c45)N2
Ans. 420

Qu. And the next one, CCCCCCCC1=C(C)C(=O)n2c1cc1[nH]c(C(=O)OC)c(C)c1c2=O ?
Ans. 482

Qu. Same thing, different molecule: CN(C)c1ccc(/C=C/c2ccc(-c3nnc(-c4ccc(-c5cc6ccccc6s5)cc4)o3)cc2)cc1
Ans. 408

Qu. Another molecule: Cc1ccc2oc(-c3cc4cc(C)ccc4oc3=O)cc2c1
Ans. 448

###

# assay.comment: solvent given as SMILES
# condition.details: in ClCCl
measured.attribute: emission maximum (nm)
Give the number; nm is assumed, so skip it.

Qu. Would you kindly share the measured emission maximum for CCOC(=O)C1=C(C(=O)OCC)C2(c3ccccc3-c3ccccc32)[C@@H](c2ccc([N+](=O)[O-])cc2)C=C2c3cc(OC)c(OC)cc3CCN21 ?
Ans. 430

Qu. And COc1ccc(C2=C(C)C3=C(c4c(-c5ccccn5)nc5ccccn45)c4c(C)c(-c5ccc(OC)cc5)c(C)n4[B-](F)(F)[N+]3=C2C)cc1 ?
Ans. 608

Qu. Queued: c1ccc(N(c2ccccc2)c2ccc(-c3ccc(-c4ccc(N(c5ccccc5)c5ccccc5)cc4)c4nsnc34)cc2)cc1
Ans. 639

Qu. What do we get for COc1ccc(-n2c3ccccc3c3c(C)cc4ccccc4c32)cc1 ?
Ans. 367

Qu. Likewise for O=c1oc2ccccc2c2c1c(=O)oc1ccc3ccc(O)cc3c12 ?
Ans. 517

Qu. And the next one, CCCCCCn1c2c(c3cc(-c4ccc5ccc6cccc7ccc4c5c67)ccc31)-c1c(c3cc(-c4ccc5ccc6cccc7ccc4c5c67)ccc3n1CCCCCC)-c1c(c3cc(-c4ccc5ccc6cccc7ccc4c5c67)ccc3n1CCCCCC)-c1c-2c2cc(-c3ccc4ccc5cccc6ccc3c4c56)ccc2n1CCCCCC ?
Ans. 382

Qu. Request: CC(C)(C)NC(=O)c1ccc(Br)c2ccc3c4ccccc4c4ccccc4c3c12
Ans. 388

Qu. What do you get for COc1ccc(/C=C/C(=O)c2ccccc2O)cc1OC ?
Ans. 460

Qu. And what about the compound CCCCCCCCOc1ccc(C2=C3C(C)=CC(C)=[N+]3[B-](F)(F)n3c(C)cc(C)c32)cc1 ?
Ans. 513

Qu. Moving on to C[Si]1(C)O[Si](C)(C)c2cc3c(-c4ccccc4)c4cc([N+](=O)[O-])ccc4nc3cc21
Ans. 521

Qu. Repeat for the following compound: c1ccc(-c2ccc3c4ccc(-c5ccccc5)c5c(-c6ccccc6)ccc(c6ccc(-c7ccccc7)c2c36)c54)cc1
Ans. 520

Qu. Again, but for O=C1c2ccccc2C(=O)N1c1ccc(Cn2cncn2)cc1
Ans. 367

Qu. Input C[Si](C)(C)c1ccc2ccc3cccc4ccc1c2c34
Ans. 377

Qu. Same question for C[Si]1(C)O[Si](C)(C)c2cc3nc4ccc([N+](=O)[O-])cc4c(-c4ccccc4)c3cc2[Si](C)(C)O1 please.
Ans. 520

Qu. And then CCCCCCOc1ccc(C#Cc2ccc(C#CC#Cc3ccc(C#Cc4ccc(OCCCCCC)c(OCCCCCC)c4)c4nsnc34)c3nsnc23)cc1OCCCCCC , what is it?
Ans. 582

Qu. Similarly, C(S/C=C/c1ccc(/C=C/SC=C2CCCCC2)cc1)=C1CCCCC1 ?
Ans. 421

###

Please respond with reported emission maximum for every item in the list.
# assay.comment: solvent given as SMILES
# condition.details: in CO
Numbers only; they are read as nm.

Qu. Which emission maximum value belongs to COc1ccc(/N=N/c2c(O)c3ccccc3n(C)c2=O)c(S(=O)(=O)O)c1 ?
Ans. 532

Qu. And the next one, CCC1=C(C)C2=Cc3cscc3B(O)N2C1=O ?
Ans. 418

Qu. Also check CN(C)c1ccc(/C=C/c2ccc(-c3nnc(-c4ccc(-c5cc6ccccc6s5)cc4)o3)cc2)cc1
Ans. 404

Qu. Now consider O=S(=O)(c1ccccc1)c1ccc(-c2ccc3c(c2)c2cc(-c4ccc(S(=O)(=O)c5ccccc5)cc4)ccc2n3-c2ccccc2)cc1 .
Ans. 434

Qu. Repeat for the following compound: COc1c2ccccc2c(OC)c2c1c1cc(Cl)ccc1n2C
Ans. 428

Qu. Can you check C[Si](C)(C)c1ccc2ccc3cccc4ccc1c2c34 next?
Ans. 376

Qu. Please answer likewise for COc1c2ccccc2c(OC)c2c1c1c(C)ccc(OC)c1n2C
Ans. 440

Qu. Now this one: CC1=CC(C)=[N+]2C1=C(c1ccccc1)c1c(C)c(-c3cccs3)c(C)n1[B-]2(F)F
Ans. 600

Qu. Would you kindly repeat that for CCNc1cc2c(cc1C)C(c1ccccc1C(=O)O)=C1CCCC(/C=C/C3=[N+](C)c4ccc5ccccc5c4C3(C)C)=C1O2 ?
Ans. 744

###

# assay.comment: solvent given as SMILES
# condition.details: in CO
measured.attribute: emission maximum (nm)
Please state the figure in nm; there is no need to write the unit.

Qu. Request the reported emission maximum associated with CC1=CC(C)=[N+]2C1=C(c1ccc3cccnc3n1)c1c(C)cc(C)n1[B-]2(F)F
Ans. 521

Qu. What do you get for COc1ccc(OC)c(C=O)c1 ?
Ans. 466

Qu. Moving on to c1ccc(N(c2ccccc2)c2ccc(-c3ncc(-c4ccc(-c5ccc(-c6cnc(-c7ccc(N(c8ccccc8)c8ccccc8)cc7)s6)s5)s4)s3)cc2)cc1
Ans. 509

Qu. Try the compound C#Cc1ccc2ccc3cccc4ccc1c2c34
Ans. 383

Qu. Further, for Brc1cnc(-c2ccncc2)s1 ?
Ans. 396

Qu. How about COC(=O)C(Cc1ccc2oc(-c3ccc(-n4c5ccccc5c5ccccc54)cc3)nc2c1)NC(=O)OC(C)(C)C (stereo not given) ?
Ans. 465.98

Qu. // next record CCC1=C(C)C2=Cc3c4ccccc4c4n3[B-](c3cc[n+](C)cc3)(Oc3ccccc3-4)[N+]2=C1C=Cc1ccc(OC)cc1 (stereo not given)
Ans. 717

Qu. Same again, this time with COc1ccc(/C=C/c2nc3ccccc3s2)cc1
Ans. 420

Qu. And Nc1ccc2c(c1)C(=O)O/C2=C\c1ccc(Cl)cc1 ?
Ans. 492.13

Qu. Continue with COc1ccc2c(CC(=O)NN)coc2c1
Ans. 378

###

# assay.comment: solvent given as SMILES
# condition.details: in CO
measured.attribute: emission maximum (nm)
Value expressed in nm; do not type the unit.

Qu. Consider the molecule O=C1c2ccccc2-c2c(-c3cc(Br)ccc3O)[nH]c(=O)n21 and give its measured emission maximum.
Ans. 492

Qu. What about O=C1c2ccccc2C(=O)N1c1ccc(Cn2cncn2)cc1 ?
Ans. 440

Qu. Now this one: CCCCCCN(CCCCCC)c1ccc(C#Cc2c(F)c(F)c(F)c(F)c2F)cc1
Ans. 464

Qu. For CSc1cc(-c2cc3cc4c5c(c3oc2=O)CCCN5CCC4)oc(=O)c1C#N then?
Ans. 601

Qu. And N#Cc1ccc2[nH]ccc2c1 ?
Ans. 367

Qu. Here is the next molecule: Nc1ccc2c(c1)C(=O)NC2=O
Ans. 518

Qu. Now this one: CC1(C)C(/C=C/C2=C(Oc3ccc(CCN=C=S)cc3Br)C(=C/C=C3/N(CCCS(=O)(=O)[O-])c4ccccc4C3(C)C)/CCC2)=[N+](CCCS(=O)(=O)[O-])c2ccccc21
Ans. 798

Qu. Lookup [C-]#[N+]c1ccc(-c2ccc(NC)cc2)cc1
Ans. 422

Qu. What do we get for CN(C)c1cccc2c1ccc1c(=O)oc(-c3ccc(C(F)(F)F)cc3)cc12 ?
Ans. 612

Qu. Same again, this time with CN(CCO)c1ccc(/N=N/c2ccc([N+](=O)[O-])cc2)cc1
Ans. 580
